System: neprilysin / meprin / MMP-9
Test: In-vitro phage selection, Nep/Mep/MMP-9
Procedure: In-vitro selection strategies involved screening for phage that are specifically cleaved by purified enzymes or tissue extracts associated with tumor tissue while also selecting against cleavage by enzymes and extracts associated with normal tissue. […] The inventors have employed two different in-vitro selection paradigms. In the initial selection, the 2.5×10^6 diversity M13 library was treated with the kidney proteases meprin and neprilysin for 3 hours. […]
# times identified in Nep/Mep/MMP-9 screen of 2 or higher: y. Under 2: n.

DVGTTE : y
WRNTIA : y

Request: Would you say QCTGRF shows # times identified in Nep/Mep/MMP-9 screen at minimum 2?
Result: n

Request: Please tell me: is the substance GMMYRS at or over 2 in terms of # times identified in Nep/Mep/MMP-9 screen?
Result: n

Request: Has IDKQLE a recorded # times identified in Nep/Mep/MMP-9 screen greater than or equal to 2?
Result: y

Request: Is it the case that DSNAES has # times identified in Nep/Mep/MMP-9 screen reaching or exceeding 2?
Result: y

Request: hey, is # times identified in Nep/Mep/MMP-9 screen for this one >= 2? FMEIET
Result: y

Request: Does RWRTNF have a reported # times identified in Nep/Mep/MMP-9 screen of at least 2?
Result: y
